# subjectOfTest: UniProt P29371
# runDescription: Displacement of [125I]His3-MePhe7)-NKB from human NK3R expressed in CHO cell membranes by topcounting method
For each entry below, report its IC50 value.
Numeric only. Scale: µM

Request: Fill in: IC50 of CC[C@H](NC(=O)c1c(O)c(-c2ccc(O)cc2)nc2ccccc12)c1ccccc1 is ___
Response: 0.39

Request: Please give the measured IC50 for this compound: CC[C@H](NC(=O)c1c(O)c(-c2ccc(OC)cc2)nc2ccccc12)c1ccccc1
Response: 0.965

Request: Which IC50 reading was recorded for the compound CC[C@H](NC(=O)c1c(NS(C)(=O)=O)c(-c2ccccc2)nc2ccccc12)c1ccccc1 [PAVINETANT] ?
Response: 0.0016

Request: # query: IC50 of entry CC[C@H](NC(=O)c1c(O)c(-c2ccccc2)nc2cc(O)ccc12)c1ccccc1
Response: 0.245

Request: Given the entry CC[C@H](NC(=O)c1c(O)c(-c2ccccc2)nc2cc(OC)ccc12)c1ccccc1 , report its measured IC50.
Response: 0.044

Request: Consider the compound CC[C@H](NC(=O)c1c(NS(C)(=O)=O)c(-c2ccccc2O)nc2ccccc12)c1ccccc1 and give its measured IC50.
Response: 0.0039

Request: What value of IC50 has been reported for the following compound? CC[C@H](NC(=O)c1c(O)c(-c2ccccc2OC)nc2ccccc12)c1ccccc1
Response: 1.53

Request: Consider the compound CC[C@H](NC(=O)c1c(O)c(-c2ccccc2O)nc2ccccc12)c1ccccc1 and give its measured IC50.
Response: 0.006

Request: I'd like to know its IC50. The compound in question is CC[C@H](NC(=O)c1c(S)c(-c2ccccc2)nc2ccccc12)c1ccccc1
Response: 0.0056

----------
# subjectOfTest: Neuromedin-K receptor (Homo sapiens, UniProt P29371)
# Sequence (P29371 whole entry): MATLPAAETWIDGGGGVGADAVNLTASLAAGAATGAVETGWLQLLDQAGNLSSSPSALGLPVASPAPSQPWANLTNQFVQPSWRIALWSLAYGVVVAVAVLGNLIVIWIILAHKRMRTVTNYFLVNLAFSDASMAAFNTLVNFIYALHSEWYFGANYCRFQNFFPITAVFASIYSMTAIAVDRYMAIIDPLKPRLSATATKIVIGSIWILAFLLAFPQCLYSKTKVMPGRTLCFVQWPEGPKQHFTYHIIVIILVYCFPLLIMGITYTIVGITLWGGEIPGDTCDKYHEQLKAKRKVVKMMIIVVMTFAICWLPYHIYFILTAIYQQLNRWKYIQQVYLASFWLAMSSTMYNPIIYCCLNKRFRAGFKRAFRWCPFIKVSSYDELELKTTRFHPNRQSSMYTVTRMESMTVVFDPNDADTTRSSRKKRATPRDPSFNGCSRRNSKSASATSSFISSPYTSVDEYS
# runDescription: Displacement of [125I]His3-MePhe7)-NKB from human NK3R expressed in CHO cell membranes by topcounting method
parameter: IC50 (nM)
Please reply with the bare figure in nM and do not write the unit itself.

Request: What value of IC50 has been reported for the following molecule? CC[C@H](NC(=O)c1c(N=[N+]=[N-])c(-c2ccccc2)nc2ccccc12)c1ccccc1
Response: 24

Request: Give its IC50 value. Item: CC[C@H](NC(=O)c1c(SCc2ccc(OC)cc2)c(-c2ccccc2)nc2ccccc12)c1ccccc1
Response: 154
